Entries and their growth values follow.
Tested on: NCI-H23 lung
experiment-description: NCI-60 one-dose screen, 48 h (100 = growth as untreated, 0 = no growth, -100 = all killed)
experimental-parameters: 10 µM
Compounds without any hit were thinned out: in the full panel of roughly 83,000, 20% have a hit.

{"compound": "Cc1ccccc1C1=N[C@@H](Cc2ccccc2)C(=O)c2c(nc3ccccn23)N1", "growth / %": 95.3}
{"compound": "CCN1CCN(c2ccc(Nc3ncnc4c3nnn4CCc3cc(OC)cc(OC)c3)cc2)CC1", "growth / %": 88.8}
{"compound": "COc1ccc(CSc2nc3cc(OC)c(OC)cc3c(=O)n2-c2ccc(OC)cc2OC)cc1", "growth / %": 78.3}
{"compound": "CCCCCc1cc[n+](CC(=O)c2ccc(Cl)cc2)cc1", "growth / %": 81.5}
{"compound": "CCOC(=O)Nc1ccc2c(c1)C(=O)N(CC)c1ccccc1O2", "growth / %": 30.1}
{"compound": "COC(=O)CCCCCCCCC(C)c1ccc(C(C)=O)cc1 (configuration not stated)", "growth / %": 99.9}
{"compound": "Nc1nc2c(nnn2C2CC(O)C(CO)O2)c(=O)[nH]1 (configuration not stated)", "growth / %": 45}
{"compound": "Cc1cc(C)c(C(=O)OC(C)CNC2CCCCC2)c(C)c1 (configuration not stated)", "growth / %": 94.1}
{"compound": "O=C(c1ccc(Cl)cc1)c1no[n+]([O-])c1C(=O)c1ccc(Cl)cc1", "growth / %": 98.4}
{"compound": "COc1c(-c2c3sc(=O)[nH]c3nc3c2c(=O)[nH]n3C(C)C)cc2c(c1OC)OCO2", "growth / %": 100}
{"compound": "COC(=O)[C@]12CC[C@@H](C)[C@H](C)[C@@H]1C1=CC[C@@H]3[C@@]4(C)C[C@@H](O)[C@H](O)[C@@](C)(CO)[C@@H]4[C@H](O)C[C@@]3(C)[C@]1(C)CC2", "growth / %": -50}
{"compound": "COc1cc2ccnc(C=O)c2cc1OC", "growth / %": 83.5}
{"compound": "Cc1ccc2nc3[nH]c(=O)[nH]c(=O)c3c(N)c2c1", "growth / %": 91.9}
{"compound": "C=CCN1C(=O)/C(=C\\c2ccc3c(c2)CCC3)SC1=S", "growth / %": 90.3}
{"compound": "CC(C)C(C)C(N)C(=O)O (configuration not stated)", "growth / %": 97.8}
{"compound": "COC1OC2COC(c3ccccc3)OC2C(=O)C1NC(=O)c1ccccc1 (configuration not stated)", "growth / %": 100}
{"compound": "CCC1(C)OC(=O)NC1=O (configuration not stated)", "growth / %": 96}
{"compound": "CC(=O)OC1Oc2ccccc2-c2oc(=O)c(-c3cc(=O)oc4cc(O)ccc34)cc21 (configuration not stated)", "growth / %": 80.8}
{"compound": "CCCCNC(=O)Oc1ccc(/C(=C(\\C)c2ccc(OC)cc2)c2ccc(OCCN3CCCCC3)cc2)cc1", "growth / %": 68.4}
{"compound": "Cn1cnc([N+](=O)[O-])c1/C=C1\\Oc2ccc(Cl)cc2C1=O", "growth / %": 93.9}
{"compound": "O=[N+]([O-])c1cc2ncccc2c2ncccc12", "growth / %": 81.3}
{"compound": "C=C[C@]1(C)C=C2C(=O)[C@@]3(O)OC(=O)[C@@]4(CCCC(C)(C)[C@H]34)[C@@]2(O)CC1", "growth / %": -60.6}
